From: the Immune Epitope Database (IEDB)

# Test system: HLA-B*15:09
# Protocol details: IEDB peptide-MHC binding, purified MHC/direct/fluorescence; filed as Kd, often an IC50 or EC50 that approximates it; bounds were set here for any values at or beyond the usual limits of such assays
# Test conditions: source organism: Ravn virus - Ravn, Kenya, 1987
Assay readout: pKd
Recall that pKd is obtained by taking minus log10 of the concentration measured in molar.

Query: Specify reported pKd for the sequence shown: IHLDKGGQF
Reply: 5.15

###

Give Kd for every item shown.
# Test system: HLA-A*01:01
# Protocol details: IEDB peptide-MHC binding, purified MHC/direct/fluorescence; filed as Kd, often an IC50 or EC50 that approximates it; bounds were set here for any values at or beyond the usual limits of such assays
# Test conditions: source organism: Rickettsia prowazekii

Query: Specify reported Kd for the sequence shown: IYSAEFKNY
Reply: ≥ 20 µM

Query: Specify reported Kd for the sequence shown: QFAGGSFDF
Reply: ≥ 20 µM

###

# Test system: HLA-A*11:01
# Protocol details: IEDB peptide-MHC binding, purified MHC/direct/fluorescence; filed as Kd, often an IC50 or EC50 that approximates it; bounds were set here for any values at or beyond the usual limits of such assays
# Test conditions: source organism: Brucella abortus
Assay readout: Kd (µM)
Field format: number, assumed µM, no unit text.

Query: Specify reported Kd for the sequence shown: KLYERNTAF
Reply: 3.99

###

# Test system: HLA-A*30:01
# Protocol details: IEDB peptide-MHC binding, purified MHC/direct/fluorescence; filed as Kd, often an IC50 or EC50 that approximates it; bounds were set here for any values at or beyond the usual limits of such assays
# Test conditions: source organism: Pseudomonas aeruginosa
Give pKd for every item shown.
Recall that pKd is obtained by taking minus log10 of the concentration measured in molar.

Query: Specify reported pKd for the sequence shown: RTGTRLLGR
Reply: 4.92

Query: Specify reported pKd for the sequence shown: DLPPAIAAE
Reply: 4.90

###

# Test system: HLA-A*24:03
# Protocol details: IEDB peptide-MHC binding, purified MHC/direct/fluorescence; filed as Kd, often an IC50 or EC50 that approximates it; bounds were set here for any values at or beyond the usual limits of such assays
# Test conditions: source organism: Orthohantavirus hantanense
Assay readout: Kd (nM)
Field format: number, assumed nM, no unit text.

Query: Look up HLA-A*24:03 data: Kd of QWLIEPCKL , then report it.
Reply: 205

###

# Test system: HLA-B*45:06
# Protocol details: IEDB peptide-MHC binding, purified MHC/competitive/fluorescence; filed as Kd, often an IC50 or EC50 that approximates it; bounds were set here for any values at or beyond the usual limits of such assays
# Test conditions: source organism: Shigella flexneri 5 str. 8401
Assay readout: Kd

Query: Specify reported Kd for the sequence shown: IIMRRFFYF
Reply: ≥ 5 µM

###

Give pKd for every item shown.
# Test system: HLA-A*02:01
# Protocol details: IEDB peptide-MHC binding, purified MHC/competitive/fluorescence; filed as Kd, often an IC50 or EC50 that approximates it; bounds were set here for any values at or beyond the usual limits of such assays
# Test conditions: source organism: Variola virus
Recall that pKd is obtained by taking minus log10 of the concentration measured in molar.

Query: Specify reported pKd for the sequence shown: ILDDNLYKV
Reply: 9.15

Query: Specify reported pKd for the sequence shown: SMHFYGWSL
Reply: 6.52
